molecular target: T1, Recombinant human CD4 (R&D Systems, Cat. 10327-CD) (human, UniProt P01730 26-390, limits assumed); assay: BLI (Octet Red384), purified antibody on anti-mouse Fc sensors, human CD4 100/50/25 nM, global 1:1 fit;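 note: antibodies loaded at 10 µg/mL, curves fitted across association and dissociation phases, with an unrelated mouse-derived antibody serving as internal reference control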
T1 construct: Bought protein; also called huCD4
Recorded kon for the following binders
recorded.metric: kon (M⁻¹ s⁻¹)

[
  {
    "binder": "75110_08D24A (antibody, V domains shown, Tested as antibody purified from AlivaMab Mouse Kappa hybridoma (human V regions, kappa light chain, mouse Fc captured by anti-mouse Fc sensors)) VH: QVQLQESGPGLVKPSETLSLTCTVSGGSISGFYWSWIRQPAGKGLEWIGRIYTSENTNYNPSLKSRVTMSVDTSKNQFSLKLSSVTAADTAVYYCARDREGYYYYGMDVWGQGTTVTVSS VL: DIQMTQSPSSLSASVGDRVTITCQASQDISNYLNWYQQKPGKAPKLLIYAASNLETGVPSRFSGSGSGTDFTFTISSLQPEDIATYYCQQYDSLPITFGQGTRLEIK",
    "obs.value": 12000
  },
  {
    "binder": "75110_13P21A (antibody, V domains shown, Tested as antibody purified from AlivaMab Mouse Kappa hybridoma (human V regions, kappa light chain, mouse Fc captured by anti-mouse Fc sensors)) VH: QVQLQQWGAGLLKPSETLSLTCAVSGGSFSGYYWSWIRQPPGKGLEWIGEINHSGSTNCNPSLKSRVTISVDTSNNQFSLKLSSVTAADTAVYYCARVLNYFDYWGQGTLVTVSS VL: DIQMTQSPSSVSASVGDRVTITCRASPDIANWLAWYQQKPGKAPELLIYAASSLQSGVPSRFSGSGSGTDFTLTISSLQPEDFATYFCQQANSFPLTFGGGTKVESK",
    "obs.value": 95000
  },
  {
    "binder": "75110_13C13A (antibody, V domains shown, Tested as antibody purified from AlivaMab Mouse Kappa hybridoma (human V regions, kappa light chain, mouse Fc captured by anti-mouse Fc sensors)) VH: QVQLQQWGAGLLKPSETLSLTCAVSGGSFSGYYWSWIRQPPGKGLEWIGEINHSGSTNCNPSLKSRVTISVDTSKNQFSLKLSSVTAADTAMYYCARVLNFFDYWGQGTLVTVSS VL: DIQMTQTPSSVSASVGDRVTITCRASPGISNWLAWYQQKPGKAPELLIYAASSLQSGVPSRFSGSGSGTDFTLTISSLQPEDFATYFCQQANSFPLTFGGGTKVESK",
    "obs.value": 120000
  },
  {
    "binder": "75110_10K21A (antibody, V domains shown, Tested as antibody purified from AlivaMab Mouse Kappa hybridoma (human V regions, kappa light chain, mouse Fc captured by anti-mouse Fc sensors)) VH: EVQLVESGGGLVQPGGSLRLSCAASGFTFSSYWMTWVRQAPGKGLEWVANIKQDGSEKYYVDSVKGRFTISRDNAKNSLYLQMNSLRAEDTAVYYCVRDRYDALDIWGQGTMVTVSS VL: AIQMTQSPSSLSASVGDRVTITCRASQGIRNDLNWYQQKPGKAPKLLIYAASSLQSGVPSRFSGSGSGTDFTLTISSLQAEDFATYYCLKDYNYPYTFGQGTKLEIK",
    "obs.value": 160000
  },
  {
    "binder": "75110_08M20A (antibody, V domains shown, Tested as antibody purified from AlivaMab Mouse Kappa hybridoma (human V regions, kappa light chain, mouse Fc captured by anti-mouse Fc sensors)) VH: QVQLQESDPGLVKPSETLSLTCTVSGGSISSYYWSWIRQPAGKGLEWIGRIYASGSTNYNPSLKSRVTMSVDTSKNQFSLKLSSVTAADTAVYYCARDREGYYYYGMDVWGQGTTVTVSS VL: DIQMTQSPSSLSASVGDRVTITCQASQDISKYLNWYQQKPGKAPNLLIYAASNLETGVPSRFSGSGSGTDFTFTISSLQPEDIAAYYCQQYDSLPITFGQGTRLEIK",
    "obs.value": 99000
  },
  {
    "binder": "75110_05K11A (antibody, V domains shown, Tested as antibody purified from AlivaMab Mouse Kappa hybridoma (human V regions, kappa light chain, mouse Fc captured by anti-mouse Fc sensors)) VH: EVQLVESGGGLVQPGGSLRLSCAASGFTFSSYDMHWVRQPTGKGLEWVSTIGTAGDTYYPASVKGRFTISRENAKNSLYLQMNSLRAGDTAVYYCARGGFYYYGMDVWGQGTTVTVSS VL: EIVLTQSPGTLSLSPGERVTLSCRASQSVSNTYLAWYQQKPGQAPRLLIYGASSRATGIPDRFSGSGSGTDFTLTISRLEPEDFVVYYCQQHGSSPFTFGPGTKVDIK",
    "obs.value": 36000
  },
  {
    "binder": "75110_09N20A (antibody, V domains shown, Tested as antibody purified from AlivaMab Mouse Kappa hybridoma (human V regions, kappa light chain, mouse Fc captured by anti-mouse Fc sensors)) VH: EVQLVESGGGLVQPGGSLRLSCAASGFTFSSYWMSWVRQAPGKGLEWVANINEDGSEKYYVDSVKGRFTISRDNAKNSLYLQMNSLRAEDTAVYYCVREGGQWLALDYWGQGTLVTVSS VL: DIQMTQSPSSVSASVGDRVTITCRASQGISSWLAWYQQKPGKAPKLLIYAASSLQSGVPSSFSGSGSGTDFTLTINSLQPEDFATYYCQQANSFPWTFGQGTKVAIK",
    "obs.value": 86000
  },
  {
    "binder": "75110_06E14A (antibody, V domains shown, Tested as antibody purified from AlivaMab Mouse Kappa hybridoma (human V regions, kappa light chain, mouse Fc captured by anti-mouse Fc sensors)) VH: QVQLQESGPGLVKPSETLSLTCTVSGGSISNYFWSWIRQPAGKGLEWIGRIYSSGNTNYNPSLKSRVTMSVDTSKNQFSLKLSSVTAADTAVYYCARDREDYYYYGMDVWGQGTTVTVSS VL: DIQMTQSPSSLSASVGDRVTITCQASQDISNYLNWYQQKPGKAPKLLIYGASILETGVPSRFTGSGSGTDFTFTISSLQPEDIATYYCQQYDSLPITFGQGTRLEIK",
    "obs.value": 18000
  },
  {
    "binder": "75110_12C19A (antibody, V domains shown, Tested as antibody purified from AlivaMab Mouse Kappa hybridoma (human V regions, kappa light chain, mouse Fc captured by anti-mouse Fc sensors)) VH: EVQLVESGGGLVQPGGSLRLSCAASGFTFSSYWMSWVRQAPGKGLEWVANIKEDGSDKYYVDSVKGRFTISRDNAKNSLYLQMNSLRAEDTAVHYCVREGGQWLALDYWGQGTLVTVSS VL: DIQMTQSPSSVSGSVGDRVTITCRASQGISSWLAWYQQKPGKAPKLLIYGASSLQSGVPSRFSGSGSGTDFTLTISSLQPEDFVTYYCQQANSFPWTFGQGTKVEIK",
    "obs.value": 290000
  },
  {
    "binder": "75110_07H07A (antibody, V domains shown, Tested as antibody purified from AlivaMab Mouse Kappa hybridoma (human V regions, kappa light chain, mouse Fc captured by anti-mouse Fc sensors)) VH: EVQVVESGGGLVQPGGSLRLSCAASGFTFSSYWMSWVRQAPGKGLEWVANIKEEGSEKYYVDSVKGRFTISRDNAKNSLYLQMNSLRAEDTAVYYCVREGGQWLALDYWGQGTLVTVSS VL: DIQMTQSPSSVSGSVGDRVTITCRASQGISSWLAWYQQKPGKAPKLLIFGASSLQSGVPSRFSGSGSGTDFTLTISSLQPEDFATYYCQQANSFPWTFGQGTKVQIK",
    "obs.value": 130000
  },
  {
    "binder": "75110_14N19A (antibody, V domains shown, Tested as antibody purified from AlivaMab Mouse Kappa hybridoma (human V regions, kappa light chain, mouse Fc captured by anti-mouse Fc sensors)) VH: QVQLQESGPGLVKPSETLSLTCTVSGGSISRYYWSWIRQPAGKGLEWIGRICTSENPNYNPALKSRVTMSVDTSKNQFSLKLSSVTAADTAVYYCARELERLNYYGMDVWGQGTTVTVSS VL: DIQMTQFPSSLSASVGDRVTITCQASQDISNYLNWYQQKPGKAPKLLIYDASNLESGVPSRFSGRGSGTDFTFTISSLQPEDFATFYCQQYDTLPITFGQGTRLEIK",
    "obs.value": 130000
  }
]

Origin of the recorded values: patent US20220112288A1
